All values here come from the Human Domainome abundance scans (Beltran et al. 2025).

B1: SH3 and PX domain-containing protein 2B, residues 155 to 209; numbered along this chain, A1X283 (parent)
chain: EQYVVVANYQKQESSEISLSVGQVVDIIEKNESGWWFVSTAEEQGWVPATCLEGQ

- Variants of: B1
- method: abundance fitness (aPCA) (normalised: wild type 0, dead -1); higher = more abundant; growth selection in yeast, the domain comes from the species named
- conditionLabel: Homo sapiens
Short version: abundance fitness at least -0.3 is label 1, less is label 0.

Take a look at these entries with their results.
| macromoleculeSequence | classLabel |
| --- | --- |
| EQYVVVANYQKQESSEISLSVGQVVDIIEKNESGWWFVSTAEEQGWVPATCREGQ [L52R] | label 0 |
| EQYVVVANYQKQESSEISLSVGQVVDIIEKNESGWHFVSTAEEQGWVPATCLEGQ [W36H] | label 0 |
| EQYVVVANYQKQDSSEISLSVGQVVDIIEKNESGWWFVSTAEEQGWVPATCLEGQ [E13D] | label 1 |
| EQYVVVAFYQKQESSEISLSVGQVVDIIEKNESGWWFVSTAEEQGWVPATCLEGQ [N8F] | label 1 |
| EQYVVVCNYQKQESSEISLSVGQVVDIIEKNESGWWFVSTAEEQGWVPATCLEGQ [A7C] | label 1 |

Request: Assess whether reported abundance fitness for EQHVVVANYQKQESSEISLSVGQVVDIIEKNESGWWFVSTAEEQGWVPATCLEGQ [Y3H] sits at -0.3 or higher.
Result: label 0

Request: Assess whether reported abundance fitness for EQYVVVANRQKQESSEISLSVGQVVDIIEKNESGWWFVSTAEEQGWVPATCLEGQ [Y9R] sits at -0.3 or higher.
Result: label 1

Request: Assess whether reported abundance fitness for EQYVVVANYQKQESSEISLSVGQVVDIIEKNESGWWFVSTAEEQGWWPATCLEGQ [V47W] sits at -0.3 or higher.
Result: label 0

Request: Assess whether reported abundance fitness for EQYVVEANYQKQESSEISLSVGQVVDIIEKNESGWWFVSTAEEQGWVPATCLEGQ [V6E] sits at -0.3 or higher.
Result: label 0

Request: Assess whether reported abundance fitness for EQYVVVANYQKQESSEISLSVGQVVDIIEKNHSGWWFVSTAEEQGWVPATCLEGQ [E32H] sits at -0.3 or higher.
Result: label 1
